Test: 15a plasma levels by LC-MS after a single intraperitoneal dose
Format: in vivo
Conditions: apoE−/−, mouse, ip, single intraperitoneal dose of 5 mg/kg, mice, range of individual mice, read-out: plasma levels 1 h after administration
assayEndpoint: concentration at 1 h

Consider the compound shown here: CC(C)[C@]1(C(=O)N2CCc3ccc(C(F)(F)F)cc3C2)CC[C@@H](N[C@@H]2CCc3cc(Br)ccc32)C1 [15a] What is its recorded concentration at 1 h? 12 to 1460 ng/mL

###

Target: murine CCR2 (mCCR2) (Mus musculus, UniProt P51683)
Sequence (P51683 whole entry): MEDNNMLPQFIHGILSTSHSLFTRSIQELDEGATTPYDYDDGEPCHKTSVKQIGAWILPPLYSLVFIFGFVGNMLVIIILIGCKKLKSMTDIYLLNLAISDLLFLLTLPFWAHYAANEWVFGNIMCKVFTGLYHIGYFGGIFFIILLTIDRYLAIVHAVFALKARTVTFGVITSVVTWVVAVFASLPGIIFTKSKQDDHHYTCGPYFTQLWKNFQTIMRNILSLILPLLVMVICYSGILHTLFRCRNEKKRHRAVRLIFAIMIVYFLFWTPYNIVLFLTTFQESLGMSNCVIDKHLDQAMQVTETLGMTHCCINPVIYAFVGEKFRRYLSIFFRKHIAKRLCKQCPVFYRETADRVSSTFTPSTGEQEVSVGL
assayEndpoint: pKi
The scale used: pKi is minus the common logarithm of the concentration in molar units.

Which measured pKi belongs to CC(C)[C@]1(C(=O)N2CCc3ccc(C(F)(F)F)cc3C2)CC[C@@H](N[C@@H]2CCc3cc(Br)ccc32)C1 [15a] , tested on murine CCR2 (mCCR2) (Mus musculus, UniProt P51683)? 7.97
